- assaySystem: KOR (kappa opioid receptor), KOR1-CHO (Mus musculus, UniProt P33534)
- Construct: expressed in transfected cells; host or cells: CHO
- measurementProtocol: Competition binding in KOR-CHO, 125I-SMGP1 radioligand
- conditionsUsed: KOR-CHO, 125I-SMGP1, 25° C., 90 minutes; read-out: Ki (nM) KOR
- Protocol: Receptor-Binding Assays: Competition-binding assays in MOR-CHO (mu), DOR-CHO (delta) and KOR-CHO (kappa) were performed at 25° C. in 50 mM potassium phosphate buffer, pH 7.4, containing 5 mM magnesium sulfate (only in the case of CHO-MOR). Specific binding was defined as the difference between total binding and nonspecific binding, determined in the presence of 8 μM levallorphan. […] Kd, Bmax, and Ki values were calculated by nonlinear regression analysis (GraphPadPrism). […]
Ki values, listed per item
Report the value in nM with no unit label.

# smilesRepr, assaySystem, Ki, nM
measured = [
    ("C=CCN1CC[C@]23c4c5ccc(O)c4O[C@H]2[C@H](NC(=O)c2cccc(C(F)(F)F)c2)CC[C@@]3(O)[C@H]1C5", "KOR (kappa opioid receptor), KOR1-CHO (Mus musculus, UniProt P33534)", 0.22),
    ("C=CCN1CC[C@]23c4c5ccc(O)c4O[C@H]2[C@H](NC(=O)c2cccc(OC)c2)CC[C@@]3(O)[C@H]1C5", "KOR (kappa opioid receptor), KOR1-CHO (Mus musculus, UniProt P33534)", 4.97),
    ("C=CCN1CC[C@]23c4c5ccc(O)c4O[C@H]2[C@H](NC(=O)c2cccc(O)c2)CC[C@@]3(O)[C@H]1C5", "KOR (kappa opioid receptor), KOR1-CHO (Mus musculus, UniProt P33534)", 2.75),
]

For the next question, use this compound.
Could you share which Ki value was measured for C=CCN1CC[C@]23c4c5ccc(O)c4O[C@H]2[C@H](NC(=O)c2ccccc2)CC[C@@]3(O)[C@H]1C5 ?
14.3

###

pKi values, listed per item
- assaySystem: DOR (delta opioid receptor), DOR1-CHO (Mus musculus)
- Construct: expressed in transfected cells; host or cells: CHO
- measurementProtocol: Competition binding in DOR-CHO, 125I-SMGP1 radioligand
The value called pKi is obtained by taking minus log10 of the concentration in mol/L.

# annotated cases, reported pKi shown
# molecule, assayReadout, numericReadout
data = [
    ("C=CCN1CCC23c4c5ccc(O)c4OC2C(NC(=O)c2ccc(C4CCCCC4)cc2)CCC3(O)C1C5 (centres unmarked)", "pKi", 7.35),
    ("C=CCN1CCC23c4c5ccc(O)c4OC2C(NC(=O)c2cccc(F)c2)CCC3(O)C1C5 (centres unmarked)", "pKi", 7.74),
    ("C=CCN1CCC23c4c5ccc(O)c4OC2C(NC(=O)c2ccc4ccccc4c2)CCC3(O)C1C5 (centres unmarked)", "pKi", 8.26),
]

Could you share which pKi value was measured for C=CCN1CC[C@]23c4c5ccc(O)c4O[C@H]2C(NC(=O)c2ccc(SC)cc2)CC[C@@]3(O)[C@H]1C5 (some centres unmarked) ?
7.80

Could you share which pKi value was measured for C=CCN1CCC23c4c5ccc(O)c4OC2C(NC(=O)c2cccc(Cl)c2)CCC3(O)C1C5 (centres unmarked) ?
8.31

Could you share which pKi value was measured for C=CCN1CCC23c4c5ccc(O)c4OC2C(NC(=O)c2ccc(I)c(I)c2)CCC3(O)C1C5 (centres unmarked) ?
9.92

Could you share which pKi value was measured for O=C(NC1CCC2(O)C3Cc4ccc(O)c5c4C2(CCN3CC2CCC2)C1O5)c1cccc(I)c1 (centres unmarked) ?
8.62
